Taken from patent US20240217960A1.

Measured logD values are reported for all entries that follow.
# assayProtocol: Experimental LogD
# Type: physicochemical
# measurementParameters: pH 7.4; 3 independent measurements
When you answer, write just the number.

Solved entries:
compound	logD
C=CC(=O)N1CCC(C(=O)NCCN2CCN(c3nc(-c4cnc(N)nc4C(F)F)nc(N4CCOCC4)n3)CC2)CC1	1.4
C=CC(=O)N1CCC(Cc2cccc(C(=O)N3CCN(c4nc(-c5cnc(N)nc5C(F)F)nc(N5CCOCC5)n4)CC3)c2)CC1	2.66
C=CC(=O)N1CCC(COCC(=O)N2CCN(c3nc(-c4cnc(N)nc4C(F)F)nc(N4CCOCC4)n3)CC2)CC1	1.7
CC(C)=CC(=O)CCC(=O)N1CCN(Cc2cc3nc(-c4cccc5[nH]ncc45)nc(N4CCOCC4)c3s2)CC1 [CNX-1351, reference compound]	3.96

Pending compound:
*Q* Using the record for C=CC(=O)N1CCC(CCCC(=O)N2CCN(c3nc(-c4cnc(N)nc4C(F)F)nc(N4CCOCC4)n3)CC2)CC1 , state its measured logD.
*A* 2.67

* * *

# testedOn: p110α (PI3Kα) (Homo sapiens, UniProt P42336)
# Sequence (P42336 whole entry): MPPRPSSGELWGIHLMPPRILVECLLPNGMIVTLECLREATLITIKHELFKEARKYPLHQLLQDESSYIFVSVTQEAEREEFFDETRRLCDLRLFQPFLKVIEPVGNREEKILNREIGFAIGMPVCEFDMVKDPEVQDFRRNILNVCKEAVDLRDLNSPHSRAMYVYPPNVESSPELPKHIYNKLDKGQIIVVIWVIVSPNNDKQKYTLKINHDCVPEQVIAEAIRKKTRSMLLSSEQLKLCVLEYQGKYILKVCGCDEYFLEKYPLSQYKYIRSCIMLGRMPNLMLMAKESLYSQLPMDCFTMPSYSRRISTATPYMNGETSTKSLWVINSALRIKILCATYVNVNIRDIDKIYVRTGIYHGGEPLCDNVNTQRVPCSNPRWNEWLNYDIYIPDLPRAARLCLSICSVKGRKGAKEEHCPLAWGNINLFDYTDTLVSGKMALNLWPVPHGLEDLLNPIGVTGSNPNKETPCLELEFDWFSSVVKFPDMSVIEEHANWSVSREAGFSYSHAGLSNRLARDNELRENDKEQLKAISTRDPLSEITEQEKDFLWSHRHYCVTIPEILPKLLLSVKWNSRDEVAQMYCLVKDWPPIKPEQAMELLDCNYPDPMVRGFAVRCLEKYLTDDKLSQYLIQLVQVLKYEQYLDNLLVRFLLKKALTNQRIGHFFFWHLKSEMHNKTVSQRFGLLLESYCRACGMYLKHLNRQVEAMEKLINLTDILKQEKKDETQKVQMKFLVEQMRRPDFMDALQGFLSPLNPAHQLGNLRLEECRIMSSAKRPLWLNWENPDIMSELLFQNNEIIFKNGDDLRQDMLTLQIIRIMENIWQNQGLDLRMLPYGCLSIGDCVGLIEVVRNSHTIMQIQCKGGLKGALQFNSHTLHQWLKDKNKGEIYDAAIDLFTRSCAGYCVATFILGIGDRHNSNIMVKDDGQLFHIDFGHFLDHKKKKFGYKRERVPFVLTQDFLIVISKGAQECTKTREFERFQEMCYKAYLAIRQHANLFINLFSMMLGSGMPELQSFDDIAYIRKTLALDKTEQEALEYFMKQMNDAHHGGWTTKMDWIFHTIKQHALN
# Sequence (P27986 whole entry partner): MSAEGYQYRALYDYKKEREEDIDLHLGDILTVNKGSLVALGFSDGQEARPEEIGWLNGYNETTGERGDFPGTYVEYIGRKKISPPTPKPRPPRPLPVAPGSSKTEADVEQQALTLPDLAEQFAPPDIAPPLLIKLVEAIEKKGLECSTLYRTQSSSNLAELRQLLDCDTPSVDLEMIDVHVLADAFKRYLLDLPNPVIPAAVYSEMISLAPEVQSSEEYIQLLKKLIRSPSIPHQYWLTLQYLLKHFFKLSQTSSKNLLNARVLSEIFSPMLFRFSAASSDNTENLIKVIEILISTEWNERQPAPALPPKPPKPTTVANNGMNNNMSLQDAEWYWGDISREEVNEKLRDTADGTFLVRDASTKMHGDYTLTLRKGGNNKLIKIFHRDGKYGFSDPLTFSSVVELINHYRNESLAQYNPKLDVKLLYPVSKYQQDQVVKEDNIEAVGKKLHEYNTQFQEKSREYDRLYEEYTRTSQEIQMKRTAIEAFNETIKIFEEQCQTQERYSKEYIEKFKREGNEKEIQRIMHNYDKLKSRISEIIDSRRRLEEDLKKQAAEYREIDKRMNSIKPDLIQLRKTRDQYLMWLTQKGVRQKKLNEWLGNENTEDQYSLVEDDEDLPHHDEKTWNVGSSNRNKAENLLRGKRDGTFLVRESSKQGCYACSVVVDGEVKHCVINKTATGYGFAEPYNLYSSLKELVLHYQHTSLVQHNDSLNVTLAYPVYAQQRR
# assayProtocol: Determination of kinetic constants (kinact, Ki) for p110α by LanthaScreen Technology
# Assay type: binding
# measurementParameters: Ki value determined after 60 min of drug incubation with PI3Kα; 2 independent measurements; read-out: Ki PI3Kα (footnote d)
Entries and their Ki
Give the quantity in nM, number only.

smilesStr	Ki / nM
C/C=C/C(=O)N(C)CCCC(=O)N1CCN(c2nc(-c3cnc(N)nc3C(F)F)nc(N3CCOCC3)n2)CC1	5.4

# ---- query compound ----
*Q* Report Ki, nothing else, for this compound: CC(C)=CC(=O)N(C)CCCC(=O)N1CCN(c2nc(-c3cnc(N)nc3C(F)F)nc(N3CCOCC3)n2)CC1
*A* 6.95

* * *

# testedOn: UniProtKB P42336
# assayProtocol: Determination of kinetic constants (kinact, Ki) for p110α by LanthaScreen Technology
# Format: binding
# measurementParameters: dissociation constant of the first reversible binding; global fitting with KinTek; read-out: Ki PI3Kα
testReadout: pKi
Scale: pKi equals -log10([C]), with [C] in mol/L.

molecule	testReadout	value
C=CC(=O)N1CCC(C(=O)NCCN2CCN(c3nc(-c4cnc(N)nc4C(F)F)nc(N4CCOCC4)n3)CC2)CC1 [Compound 62]	pKi	7.79
C=CC(=O)N1CCC(Cc2cccc(C(=O)N3CCN(c4nc(-c5cnc(N)nc5C(F)F)nc(N5CCOCC5)n4)CC3)c2)CC1 [Compound 101]	pKi	7.98
CN(C)C/C=C/C(=O)N1CCC(C(=O)N(C)CCC(=O)N2CCN(c3nc(-c4cnc(N)nc4C(F)F)nc(N4CCOCC4)n3)CC2)CC1 [Compound 58]	pKi	7.91
C=CC(=O)N1CCC(C(=O)NCCCC(=O)N2CCN(c3nc(-c4cnc(N)nc4C(F)F)nc(N4CCOCC4)n3)CC2)CC1 [Compound 51]	pKi	7.97
C=CC(=O)N1CCC(C(=O)NCCC(=O)N2CCN(c3nc(-c4cnc(N)nc4C(F)F)nc(N4CCOCC4)n3)CC2)CC1 [Compound 48]	pKi	7.85

*Q* Answer with the recorded pKi of C=CC(=O)N1CCC(CCC(=O)N2CCN(c3nc(-c4cnc(N)nc4C(F)F)nc(N4CCOCC4)n3)CC2)CC1 [Compound 40] only.
*A* 8.07

* * *

kinact values, listed per item
# testedOn: p110α (PI3Kα) (Homo sapiens, UniProt P42336)
# assayProtocol: Determination of kinetic constants (kinact, Ki) for p110α by LanthaScreen Technology
# Type: binding
# measurementParameters: maximum potential rate of covalent bond formation; global fitting with KinTek; read-out: kinact PI3Kα
Enter your answer as a number in s⁻¹; do not include the unit.

smilesStr	endpointUnit	value
C/C=C/C(=O)CCCCCC(=O)N1CCN(c2nc(-c3cnc(N)nc3C(F)F)nc(N3CCOCC3)n2)CC1	s⁻¹	0.016
CC(C)=CC(=O)CCCC(=O)N1CCN(c2nc(-c3cnc(N)nc3C(F)F)nc(N3CCOCC3)n2)CC1	s⁻¹	2.56e-05
C=CC(=O)N1CCC(CCC(=O)N2CCN(c3nc(-c4cnc(N)nc4C(F)F)nc(N4CCOCC4)n3)CC2)CC1	s⁻¹	0.000292
C/C=C/C(=O)CCCCC(=O)N1CCN(c2nc(-c3cnc(N)nc3C(F)F)nc(N3CCOCC3)n2)CC1	s⁻¹	0.00392
CC(C)=CC(=O)CCCCC(=O)N1CCN(c2nc(-c3cnc(N)nc3C(F)F)nc(N3CCOCC3)n2)CC1	s⁻¹	0.000187

*Q* # return kinact of C=CC(=O)NCCCC(=O)N1CCN(c2nc(-c3cnc(N)nc3C(F)F)nc(N3CCOCC3)n2)CC1 (system: p110α (PI3Kα) (Homo sapiens, UniProt P42336))
*A* 7.6e-05

*Q* Give p110α (PI3Kα) (Homo sapiens, UniProt P42336) kinact for the following compound: C=CC(=O)N1CCC(C(=O)NCCN2CCN(c3nc(-c4cnc(N)nc4C(F)F)nc(N4CCOCC4)n3)CC2)CC1
*A* 0.000187

*Q* Name the value of kinact reported for C=CC(=O)N1CCC(C(=O)N(C)CCC(=O)N2CCN(c3nc(-c4cnc(N)nc4C(F)F)nc(N4CCOCC4)n3)CC2)CC1 when tested on p110α (PI3Kα) (Homo sapiens, UniProt P42336).
*A* 0.000378

*Q* Supply kinact measured with p110α (PI3Kα) (Homo sapiens, UniProt P42336) for C/C=C/C(=O)CCCC(=O)N1CCN(c2nc(-c3cnc(N)nc3C(F)F)nc(N3CCOCC3)n2)CC1 .
*A* 0.00121

* * *

# testedOn: UniProt P42336
# assayProtocol: Determination of kinetic constants (kinact, Ki) for p110α by LanthaScreen Technology
# Assay type: binding
# measurementParameters: read-out: kinact/Ki PI3Kα
testReadout: kinact/KI
Number first, unit second.

Example cases with answers are listed next.
compound	testReadout	value
C=CC(=O)N1CCC(CC(=O)N2CCN(c3nc(-c4cnc(N)nc4C(F)F)nc(N4CCOCC4)n3)CC2)CC1 [Compound 35]	kinact/KI	9290 M⁻¹ s⁻¹
N#C/C(=C/C1CC1)C(=O)N1CCC(COCC(=O)N2CCN(c3nc(-c4cnc(N)nc4C(F)F)nc(N4CCOCC4)n3)CC2)CC1 [Compound 118]	kinact/KI	1.08e+07 M⁻¹ s⁻¹
C=CC(=O)N1CCC(Cc2ccc(C(=O)N3CCN(c4nc(-c5cnc(N)nc5C(F)F)nc(N5CCOCC5)n4)CC3)cc2)CC1 [Compound 100]	kinact/KI	13700 M⁻¹ s⁻¹
C=CC(=O)N1CCC(C(=O)N2CCN(c3nc(-c4cnc(N)nc4C(F)F)nc(N4CCOCC4)n3)CC2)CC1 [Compound 28]	kinact/KI	5390 M⁻¹ s⁻¹

*Q* Note kinact/KI for the compound shown: C=CC(=O)N1CCC(C(=O)NCCCC(=O)N2CCN(c3nc(-c4cnc(N)nc4C(F)F)nc(N4CCOCC4)n3)CC2)CC1 [Compound 51]
*A* 18800 M⁻¹ s⁻¹

*Q* Indicate the recorded kinact/KI value for this compound: CC(C)=CC(=O)CCCC(=O)N1CCN(c2nc(-c3cnc(N)nc3C(F)F)nc(N3CCOCC3)n2)CC1 [Compound 23]
*A* 3210 M⁻¹ s⁻¹

*Q* Note down kinact/KI recorded for C/C=C/C(=O)CCCCC(=O)N1CCN(c2nc(-c3cnc(N)nc3C(F)F)nc(N3CCOCC3)n2)CC1 [Compound 2]
*A* 693000 M⁻¹ s⁻¹

*Q* Specify reported kinact/KI for the compound shown: C/C=C/C(=O)CCC(=O)N1CCN(c2nc(-c3cnc(N)nc3C(F)F)nc(N3CCOCC3)n2)CC1 [Compound 19]
*A* 130000 M⁻¹ s⁻¹

* * *

Below is a list of entries, each paired with its recorded kinact value.
# testedOn: p110α (PI3Kα) (Homo sapiens, UniProt P42336)
# assayProtocol: Determination of kinetic constants (kinact, Ki) for p110α by LanthaScreen Technology
# Assay type: binding
# measurementParameters: maximum potential rate of covalent bond formation; global fitting with KinTek; read-out: kinact PI3Kα
Reply with just the number (in s⁻¹).

smilesStr	testReadout	value
C/C=C/C(=O)CCC(=O)N1CCN(c2nc(-c3cnc(N)nc3C(F)F)nc(N3CCOCC3)n2)CC1	kinact	0.0002

*Q* Answer with the recorded kinact of CN(C)C/C=C/C(=O)N1CCC(C(=O)N(C)CCC(=O)N2CCN(c3nc(-c4cnc(N)nc4C(F)F)nc(N4CCOCC4)n3)CC2)CC1 only.
*A* 0.000406

*Q* Output kinact of CC(C)=CC(=O)CCC(=O)N1CCN(c2nc(-c3cnc(N)nc3C(F)F)nc(N3CCOCC3)n2)CC1
*A* 1.13e-05

*Q* Look up and state reported kinact for C=CC(=O)N1CCC(CC(=O)N2CCN(c3nc(-c4cnc(N)nc4C(F)F)nc(N4CCOCC4)n3)CC2)CC1
*A* 9.84e-05

*Q* Please give measured kinact of the following entry: C=CC(=O)N1CCC(Cc2cccc(C(=O)N3CCN(c4nc(-c5cnc(N)nc5C(F)F)nc(N5CCOCC5)n4)CC3)c2)CC1
*A* 0.00015
